Source: patent US9365583B2

Listed compounds paired with reported pKi
target: N-terminally GST-tagged DLK (catalytic domain amino acid 1-520) (Homo sapiens, UniProt Q12852); construct: N-terminally GST-tagged DLK (catalytic domain amino acid 1-520); experiment: DLK TR-FRET inhibition assay; settings: 5 nM GST-DLK, 40 nM HIS-MKK4 K131M substrate, 30 μM ATP, 60 minutes at ambient temperature
pKi: −log10 of the molar value.
Property name: pKi

[[record]]
compound = "COC1CCN([C@H]2C[C@@H]3[C@H](C2)[C@H]3c2cc(-c3cnc(N)c(OC(F)F)c3)nn2C(C)C)C1 (stereo partly drawn) [compound 73]"
test_result = 8.74

[[record]]
compound = "COC1CN([C@@H]2C[C@@H]3[C@H](C2)[C@H]3c2cc(-c3cnc(N)c(C(F)(F)F)c3)nn2CC(F)F)C1 [compound 149]"
test_result = 8.39

[[record]]
compound = "CC(C)n1nc(-c2cnc(N)c(OC(F)F)c2)cc1[C@H]1[C@@H]2C[C@H](N3CCN(CC(F)F)CC3)C[C@@H]21 [compound 264]"
test_result = 8.74


====

Target: N-terminally GST-tagged DLK (catalytic domain amino acid 1-520) (Homo sapiens)
Construct: N-terminally GST-tagged DLK (catalytic domain amino acid 1-520)
Sequence (Q12852 1-520): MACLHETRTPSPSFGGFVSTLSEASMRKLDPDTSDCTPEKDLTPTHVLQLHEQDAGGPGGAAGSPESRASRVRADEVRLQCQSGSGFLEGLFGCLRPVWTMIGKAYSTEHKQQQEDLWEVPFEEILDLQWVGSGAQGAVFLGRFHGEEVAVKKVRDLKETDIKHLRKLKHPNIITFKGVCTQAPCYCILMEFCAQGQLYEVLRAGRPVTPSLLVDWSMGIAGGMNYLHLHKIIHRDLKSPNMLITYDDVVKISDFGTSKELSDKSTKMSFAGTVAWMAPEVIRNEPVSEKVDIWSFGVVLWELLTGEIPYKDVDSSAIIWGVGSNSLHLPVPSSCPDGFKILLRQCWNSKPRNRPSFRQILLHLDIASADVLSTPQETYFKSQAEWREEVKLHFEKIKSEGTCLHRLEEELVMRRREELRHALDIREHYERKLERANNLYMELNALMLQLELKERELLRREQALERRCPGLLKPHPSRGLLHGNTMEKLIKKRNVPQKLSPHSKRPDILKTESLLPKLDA
Test: DLK TR-FRET inhibition assay
Settings: 5 nM GST-DLK, 40 nM HIS-MKK4 K131M substrate, 30 μM ATP, 60 minutes at ambient temperature
pKi: −log10 of the molar value.
Property name: pKi

[[record]]
line_notation = "CC(C)n1nc(-c2cnc(N)c(C(F)(F)F)c2)cc1[C@H]1[C@@H]2C[C@H](N3CCS(=O)(=O)CC3)C[C@@H]21"
property_name = "pKi"
test_result = 8.48

[[record]]
line_notation = "CC(C)n1nc(-c2cnc(N)c(OC(F)(F)F)c2)cc1[C@H]1[C@@H]2C[C@H](NCC(F)F)C[C@@H]21"
property_name = "pKi"
test_result = 8.11

[[record]]
line_notation = "CC(C)n1nc(-c2cnc(N)c(OC(F)F)c2)cc1[C@H]1[C@@H]2C[C@H](NCC(F)F)C[C@@H]21"
property_name = "pKi"
test_result = 8.52

[[record]]
line_notation = "CC(C)n1nc(-c2cnc(N)c(OC(F)F)c2)cc1[C@H]1[C@@H]2C[C@@H](N3CC4(CCCO4)C3)C[C@@H]21"
property_name = "pKi"
test_result = 8.59

[[record]]
line_notation = "CC(C)n1nc(-c2cnc(N)c(OC(F)F)c2)cc1[C@H]1[C@@H]2C[C@H](N3CC4(CN(C)CCO4)C3)C[C@@H]21"
property_name = "pKi"
test_result = 8.55

[[record]]
line_notation = "CC(C)n1nc(-c2cnc(N)c(OC(F)(F)F)c2)cc1[C@H]1[C@@H]2C[C@@H](N3CCNCC3)C[C@@H]21"
property_name = "pKi"
test_result = 8.59


====

molecular target: N-terminally GST-tagged DLK (catalytic domain amino acid 1-520) (Homo sapiens, UniProt Q12852); construct: N-terminally GST-tagged DLK (catalytic domain amino acid 1-520); test: DLK TR-FRET inhibition assay; conditions: 5 nM GST-DLK, 40 nM HIS-MKK4 K131M substrate, 30 μM ATP, 60 minutes at ambient temperature
Listed molecules paired with reported log10(Ki)
Property name: log10(Ki) (log10 of the value in nM)

[[record]]
molecule = "CO[C@H]1CCN([C@H]2C[C@@H]3[C@H](C2)[C@H]3c2cc(-c3cnc(N)c(OC(F)(F)F)c3)nn2C(C)C)C1 [compound 23]"
test_result = -0.01

[[record]]
molecule = "CC(C)n1nc(-c2cnc(N)c(C(F)(F)F)c2)cc1[C@H]1[C@@H]2C[C@H](n3cccn3)C[C@@H]21 [compound 111]"
test_result = 0.94

[[record]]
molecule = "CO[C@H]1CCN([C@@H]2C[C@@H]3[C@H](C2)[C@H]3c2cc(-c3cnc(N)c(C(F)(F)F)c3)nn2CC(F)F)C1 [compound 150]"
test_result = 0.56

[[record]]
molecule = "CC(C)n1nc(-c2cnc(N)c(OC(F)(F)F)c2)cc1[C@H]1[C@@H]2C[C@@]3(CCN3CC(F)F)C[C@@H]21 [compound 147]"
test_result = 0.76

[[record]]
molecule = "Nc1ncc(-c2cc([C@H]3[C@@H]4C[C@@H](N5CCCOCC5)C[C@@H]43)n(CC(F)F)n2)cc1OC(F)F [compound 232]"
test_result = 0.04

[[record]]
molecule = "CC(C)n1nc(-c2cnc(N)c(OC(F)F)c2)cc1[C@H]1[C@@H]2C[C@H](N3CC4(CCCO4)C3)C[C@@H]21 [compound 225]"
test_result = 0.62

[[record]]
molecule = "CC(C)n1nc(-c2cnc(N)c(C(F)(F)F)c2)cc1[C@H]1[C@@H]2C[C@@H](N3CCCN(C)CC3)C[C@@H]21 [compound 210]"
test_result = 0.30

[[record]]
molecule = "CC(C)n1nc(-c2cnc(N)c(C(F)(F)F)c2)cc1[C@H]1[C@@H]2C[C@H](N3CC4(COC4)C3)C[C@@H]21 [compound 65]"
test_result = 0.05

[[record]]
molecule = "CC(C)n1nc(-c2cnc(N)c(C(F)(F)F)c2)cc1[C@@H]1[C@H]2CC[C@H](O)[C@H]21 (single isomer, unassigned) [compound 143]"
test_result = 1.50

[[record]]
molecule = "COC1CCN([C@@H]2C[C@@H]3[C@H](C2)[C@H]3c2cc(-c3cnc(N)c(C(F)(F)F)c3)nn2C(C)C)CC1 [compound 249]"
test_result = 0.41

[[record]]
molecule = "CC(C)n1nc(-c2cnc(N)c(C(F)(F)F)c2)cc1[C@H]1[C@@H]2C[C@H](OC3COC3)C[C@@H]21 [compound 287]"
test_result = 0.80

[[record]]
molecule = "CO[C@H]1CCN([C@@H]2C[C@@H]3[C@H](C2)[C@H]3c2cc(-c3cnc(N)c(OC(F)F)c3)nn2C(C)C)C1 [compound 215]"
test_result = 0.15

[[record]]
molecule = "CC(C)n1nc(-c2cnc(N)c(OC(F)F)c2)cc1[C@H]1[C@@H]2C[C@@H](N3CCOCC3)C[C@@H]21 [compound 84]"
test_result = 0.23


====

biological target: N-terminally GST-tagged DLK (catalytic domain amino acid 1-520) (Homo sapiens); construct: N-terminally GST-tagged DLK (catalytic domain amino acid 1-520); assay: DLK TR-FRET inhibition assay; conditions: 5 nM GST-DLK, 40 nM HIS-MKK4 K131M substrate, 30 μM ATP, 60 minutes at ambient temperature
Use Ki to assign classes; range list: low group: < 2 nM; middle group: ≥ 2 nM and < 3 nM; high group: ≥ 3 nM

[[record]]
molecule = "CO[C@@H]1CCN([C@H]2C[C@@H]3[C@H](C2)[C@H]3c2cc(-c3cnc(N)c(OC(F)(F)F)c3)nn2C(C)C)C1"
label_value = "low group"

[[record]]
molecule = "CC(C)n1nc(-c2cnc(N)c(OC(F)F)c2)cc1[C@H]1[C@@H]2C[C@H](N3CCOCC(F)(F)C3)C[C@@H]21"
label_value = "middle group"

[[record]]
molecule = "CC(C)n1nc(-c2cnc(N)c(C(F)(F)F)c2)cc1[C@H]1[C@@H]2C[C@@H](N3CCN4CCCC4C3)C[C@@H]21 (single isomer, unassigned) [compound 261]"
label_value = "low group"

[[record]]
molecule = "COC1CN([C@H]2C[C@@H]3[C@H](C2)[C@H]3c2cc(-c3cnc(N)c(OC(F)F)c3)nn2CC2CC2)C1"
label_value = "low group"

[[record]]
molecule = "COCCN1CC[C@@]12C[C@@H]1[C@H](C2)[C@H]1c1cc(-c2cnc(N)c(OC(F)(F)F)c2)nn1C(C)C"
label_value = "high group"

[[record]]
molecule = "CC(C)n1nc(-c2cnc(N)c(C(F)(F)F)c2)cc1[C@H]1[C@@H]2C[C@H](N3CCCN(C)CC3)C[C@@H]21"
label_value = "high group"

[[record]]
molecule = "CC(C)n1nc(-c2cnc(N)c(OC(F)(F)F)c2)cc1[C@H]1[C@@H]2C[C@H](N3CC4(CCCO4)C3)C[C@@H]21"
label_value = "high group"

[[record]]
molecule = "Nc1ncc(-c2cc([C@H]3[C@@H]4C[C@@H](N5CCOCC5)C[C@@H]43)n(CC(F)F)n2)cc1OC(F)(F)F"
label_value = "low group"

[[record]]
molecule = "CC(C)n1nc(-c2cnc(N)c(OC(F)F)c2)cc1[C@H]1[C@@H]2CC(F)(F)C[C@@H]21"
label_value = "high group"

[[record]]
molecule = "CC(C)n1nc(-c2cnc(N)c(OC(F)F)c2)cc1[C@H]1[C@@H]2C[C@@H](N3C[C@@H]4C[C@H]3CN4C)C[C@@H]21"
label_value = "middle group"

[[record]]
molecule = "CC(C)n1nc(-c2cnc(N)c(OC(F)F)c2)cc1[C@H]1[C@@H]2C[C@@H](NCC(F)F)C[C@@H]21"
label_value = "low group"

[[record]]
molecule = "CC(C)n1nc(-c2cnc3cnn([C@@H](C)c4ccccn4)c3c2)cc1[C@H]1[C@@H]2C[C@@H](N3CCOCC3)C[C@@H]21"
label_value = "high group"

[[record]]
molecule = "CC(C)n1nc(-c2cnc(N)c(OC(F)(F)F)c2)cc1[C@H]1[C@@H]2C[C@@H](N3CC4(COC4)C3)C[C@@H]21"
label_value = "low group"

[[record]]
molecule = "CC(C)n1nc(-c2cnc(N)c(C(F)(F)F)c2)cc1[C@H]1[C@@H]2C[C@@H](N3CCOC[C@@H]3C)C[C@@H]21"
label_value = "low group"

[[record]]
molecule = "CC(C)n1nc(-c2cnc(N)c(C(F)(F)F)c2)cc1[C@@H]1[C@H]2CC3C(OCCN3C)[C@H]21 (mixture of isomers)"
label_value = "high group"

[[record]]
molecule = "CC(C)n1nc(-c2cnc(N)c(C(F)(F)F)c2)cc1[C@H]1[C@@H]2C[C@H](N3CCN(CC(F)F)CC3)C[C@@H]21"
label_value = "middle group"

[[record]]
molecule = "CC(C)n1nc(-c2cnc(N)c(C(F)(F)F)c2)cc1[C@@H]1[C@@H]2C[C@@H](O)C[C@@H]21"
label_value = "high group"

[[record]]
molecule = "CC(C)n1nc(-c2cnc(N)c(OC(F)F)c2)cc1[C@H]1[C@@H]2C[C@H](N3C4COCC3C4)C[C@@H]21"
label_value = "low group"

[[record]]
molecule = "CC(C)n1nc(-c2cnc(N)c(OC(F)(F)F)c2)cc1[C@H]1[C@@H]2C[C@H](N3CCN(C)C[C@@H]3C)C[C@@H]21"
label_value = "middle group"

[[record]]
molecule = "CO[C@@H]1C[C@@H]2[C@H](C1)[C@H]2c1cc(-c2cnc(N)c(OC(F)F)c2)nn1C(C)C"
label_value = "high group"

[[record]]
molecule = "COCCN1CC[C@@]12C[C@@H]1[C@H](C2)[C@H]1c1cc(-c2cnc(N)c(C(F)(F)F)c2)nn1C(C)C"
label_value = "middle group"

[[record]]
molecule = "CC(C)n1nc(-c2cnc3ccn([C@@H](C)c4ccccn4)c3c2)cc1[C@H]1[C@@H]2C[C@H](N3CCOCC3)C[C@@H]21"
label_value = "low group"

[[record]]
molecule = "CC(C)n1nc(-c2cnc(N)c(C(F)(F)F)c2)cc1[C@H]1[C@@H]2C[C@@H](N3CCN(C)C4(COC4)C3)C[C@@H]21"
label_value = "high group"

